These data points were gathered from patent US20230134571A1.

target: HIV Env, isolate BF1266.431a (HIV); test: cell-based or functional assay
Parameter IC80 (µg/ml) with constrains: see the listing below.
Unit µg/mL implied. Number only.

BINDER	IC80 (µg/ml) with constrains (µg/mL)
ePGDM13 (antibody, V domains shown) VH: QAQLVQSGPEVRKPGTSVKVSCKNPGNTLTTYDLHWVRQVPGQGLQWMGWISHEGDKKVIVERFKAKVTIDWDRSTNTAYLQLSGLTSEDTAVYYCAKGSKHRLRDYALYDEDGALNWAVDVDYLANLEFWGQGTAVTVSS VL: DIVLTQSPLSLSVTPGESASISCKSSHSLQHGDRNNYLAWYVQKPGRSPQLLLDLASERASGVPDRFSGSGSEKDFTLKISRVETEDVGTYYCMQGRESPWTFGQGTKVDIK	0.016

Need IC80 (µg/ml) with constrains, item ePGDM5 (antibody, V domains shown) VH: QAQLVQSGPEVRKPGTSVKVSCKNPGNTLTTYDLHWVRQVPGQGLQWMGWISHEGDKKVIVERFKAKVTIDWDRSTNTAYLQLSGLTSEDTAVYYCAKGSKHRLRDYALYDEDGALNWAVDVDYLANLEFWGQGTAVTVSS VL: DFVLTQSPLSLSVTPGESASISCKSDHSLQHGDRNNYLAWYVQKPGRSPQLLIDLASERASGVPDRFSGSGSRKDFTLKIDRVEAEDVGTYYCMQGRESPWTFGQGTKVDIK
0.014

ePGDM9 (antibody, V domains shown) VH: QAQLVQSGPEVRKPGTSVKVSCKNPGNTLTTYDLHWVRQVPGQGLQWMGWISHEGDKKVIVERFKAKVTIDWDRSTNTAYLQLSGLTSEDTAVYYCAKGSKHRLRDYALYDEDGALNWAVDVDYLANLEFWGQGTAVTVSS VL: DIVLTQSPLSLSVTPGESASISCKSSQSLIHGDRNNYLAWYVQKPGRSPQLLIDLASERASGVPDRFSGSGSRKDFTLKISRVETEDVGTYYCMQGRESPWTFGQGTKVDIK , same question.
0.008
